Every entry's value here was drawn from patent US9023851B2.

# target.under.test: KDR (Homo sapiens, UniProt P35968)
# Sequence (P35968 20-1356): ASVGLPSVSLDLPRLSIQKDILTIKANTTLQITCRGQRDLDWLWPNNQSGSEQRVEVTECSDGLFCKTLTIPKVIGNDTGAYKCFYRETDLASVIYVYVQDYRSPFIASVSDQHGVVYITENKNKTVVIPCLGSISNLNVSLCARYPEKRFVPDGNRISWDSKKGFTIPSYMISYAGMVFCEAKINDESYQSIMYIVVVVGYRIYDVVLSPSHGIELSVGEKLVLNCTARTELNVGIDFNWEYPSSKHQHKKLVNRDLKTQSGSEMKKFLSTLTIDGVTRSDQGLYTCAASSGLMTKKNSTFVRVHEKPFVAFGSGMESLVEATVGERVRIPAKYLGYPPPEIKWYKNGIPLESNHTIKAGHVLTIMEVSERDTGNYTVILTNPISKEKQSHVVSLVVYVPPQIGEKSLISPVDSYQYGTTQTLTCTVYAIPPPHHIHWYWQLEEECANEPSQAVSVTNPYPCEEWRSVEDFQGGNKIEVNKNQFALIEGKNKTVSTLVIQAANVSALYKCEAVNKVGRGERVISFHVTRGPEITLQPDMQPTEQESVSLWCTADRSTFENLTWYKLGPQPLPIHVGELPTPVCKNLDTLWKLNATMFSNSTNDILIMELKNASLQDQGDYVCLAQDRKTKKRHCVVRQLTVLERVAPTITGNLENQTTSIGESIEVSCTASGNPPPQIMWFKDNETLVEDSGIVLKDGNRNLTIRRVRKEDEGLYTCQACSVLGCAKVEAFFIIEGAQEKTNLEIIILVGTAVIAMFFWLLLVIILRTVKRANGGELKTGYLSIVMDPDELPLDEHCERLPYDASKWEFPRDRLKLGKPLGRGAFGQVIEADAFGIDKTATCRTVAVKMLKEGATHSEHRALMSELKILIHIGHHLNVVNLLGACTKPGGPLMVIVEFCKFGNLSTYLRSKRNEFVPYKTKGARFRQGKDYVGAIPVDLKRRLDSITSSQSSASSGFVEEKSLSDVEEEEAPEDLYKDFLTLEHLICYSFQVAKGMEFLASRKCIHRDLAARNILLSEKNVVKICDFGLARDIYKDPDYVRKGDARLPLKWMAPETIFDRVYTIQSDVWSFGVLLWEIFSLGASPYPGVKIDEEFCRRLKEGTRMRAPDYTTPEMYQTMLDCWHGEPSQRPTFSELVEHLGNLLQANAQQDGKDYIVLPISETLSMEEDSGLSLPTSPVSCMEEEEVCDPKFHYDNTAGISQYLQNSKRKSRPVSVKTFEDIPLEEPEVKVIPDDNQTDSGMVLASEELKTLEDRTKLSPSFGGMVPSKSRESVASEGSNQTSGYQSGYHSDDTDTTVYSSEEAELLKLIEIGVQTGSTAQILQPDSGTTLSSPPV
pIC50: −log10 of the molar value.
property.name: pIC50

Consider the worked cases shown below.
compound: Cn1ccnc1Sc1ccc(Nc2nc3c(-c4ccccc4)nccn3n2)cc1Cl [Example C23]
pIC50: 5.52 to 6.52
//
compound: Cn1ncc2cc(-c3nccn4nc(Nc5ccc(N6CCOCC6)cc5)nc34)ccc21 [Example D2]
pIC50: > 6.52

Prompt: Lab note: record pIC50 of c1cnc2cc(-c3nccn4nc(Nc5ccc(N6CCOCC6)cc5)nc34)ccc2c1 [Example C265] tested on KDR (Homo sapiens, UniProt P35968).
Completion: > 6.52

Prompt: Lab note: record pIC50 of Cc1cccc(Nc2nc3c(-c4ccc(N5CCOCC5)cc4)nccn3n2)c1 [Example C13] tested on KDR (Homo sapiens, UniProt P35968).
Completion: 5.52 to 6.52
